testedOn: GDP-bound KRAS wild-type protein (Homo sapiens, UniProt P01116)
Sequence (P01116 1-188 isoform P01116-2): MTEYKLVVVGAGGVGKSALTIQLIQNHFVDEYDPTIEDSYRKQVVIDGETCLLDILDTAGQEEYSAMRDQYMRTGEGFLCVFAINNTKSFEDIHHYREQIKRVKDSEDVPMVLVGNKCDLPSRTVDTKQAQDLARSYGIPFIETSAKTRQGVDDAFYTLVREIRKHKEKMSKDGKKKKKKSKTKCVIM
methodNotes: Binding to KRAS by surface plasmon resonance (SPR), dissociation constant KD
conditionDescription: 1:1 binding model
Where a SMILES comes first, the peptide text is derived from it. Bridges are numbered along the chain shown (N, C = ends). [ ]: non-standard residue; d: D form. The star is where a group is joined. hPhe(3-Cl-4-CF3) = N[C@@H](CCc1ccc(C(F)(F)F)c(Cl)c1)C(=O)O; NPrPhe(4-CF3) = CCCN[C@@H](Cc1ccc(C(F)(F)F)cc1)C(=O)O; NMeGly(cPent) = CN[C@H](C(=O)O)C1CCCC1; NMeD = CN[C@@H](CC(=O)O)C(=O)O; NMeL = CN[C@@H](CC(C)C)C(=O)O; Morpholide = C1CN(*)CCO1; Ac5c = NC1(C(=O)O)CCCC1; Aze = O=C(O)[C@@H]1CCN1; Sar = CNCC(=O)O
Recorded pKd values for a group of molecules are listed next.
pKd is defined as minus the log10 of a concentration measured in mol/L.

Here is how some molecules turned out for pKd.
[[record]]
molecule = "CCCN1C(=O)CN(C)C(=O)[C@@H]2CCN2C(=O)[C@H]([C@@H](C)CC)NC(=O)[C@H](CC(C)C)N(C)C(=O)C[C@@H](C(=O)N2CCOCC2)N(C)C(=O)[C@H](C2CCCC2)N(C)C(=O)C2(CCCC2)NC(=O)[C@@H]2CCCN2C(=O)[C@H](CCc2ccc(C(F)(F)F)c(Cl)c2)NC(=O)CN(C)C(=O)[C@@H]1Cc1ccc(C(F)(F)F)cc1 [PP0158] ([NMeL]I[Aze][Sar][NPrPhe(4-CF3)][Sar][hPhe(3-Cl-4-CF3)]P[Ac5c][NMeGly(cPent)][NMeD]-Morpholide; lactam N-11)"
testedon = "GDP-bound KRAS wild-type protein (Homo sapiens, UniProt P01116)"
measuredproperty = "pKd"
number = 9.07

[[record]]
molecule = "CCO[C@@H]1C[C@H]2C(=O)NC3(CC(C)(C)C3)C(=O)N(C)[C@@H](C3CCCC3)C(=O)N(C)[C@H](C(=O)N(C)C)CC(=O)N(C)[C@@H](COC)C(=O)N[C@@H]([C@@H](C)CC)C(=O)N(C3CC3)CC(=O)N(C)[C@H]3C/C=C\\CCN(C3=O)[C@@H](CC3CCCCC3)C(=O)N(C)CC(=O)N[C@@H](CCc3ccc(Cl)c(Cl)c3)C(=O)N2C1"
testedon = "GDP-bound KRAS wild-type protein (Homo sapiens, UniProt P01116)"
measuredproperty = "pKd"
number = 8.64

[[record]]
molecule = "CCC[C@H]1C(=O)N[C@@H]([C@@H](C)CC)C(=O)N(C)CC(=O)N(C)[C@H]2C/C=C\\CCN(C2=O)[C@@H](Cc2ccc(C)cc2)C(=O)N(C)CC(=O)N[C@@H](CCc2ccc(Cl)c(Cl)c2)C(=O)N2C[C@H](OCC)C[C@H]2C(=O)NC2(CC(C)(C)C2)C(=O)N(C)[C@@H](CC2CC2)C(=O)N(C)[C@H](C(=O)N(C)C)CC(=O)N1C"
testedon = "GDP-bound KRAS wild-type protein (Homo sapiens, UniProt P01116)"
measuredproperty = "pKd"
number = 8.92

[[record]]
molecule = "CCC(CC)[C@H]1C(=O)N(C)[C@H](C(=O)N(C)C)CC(=O)N(C)[C@@H](COC)C(=O)N[C@@H]([C@@H](C)CC)C(=O)N(C)CC(=O)N(C)[C@H]2C/C=C\\CCN(C2=O)[C@@H](Cc2ccc(C)cc2)C(=O)N(C)CC(=O)N[C@@H](CCc2ccc(C(F)(F)F)c(Cl)c2)C(=O)N2CCCC[C@H]2C(=O)NC2(CC(C)(C)C2)C(=O)N1C"
testedon = "GDP-bound KRAS wild-type protein (Homo sapiens, UniProt P01116)"
measuredproperty = "pKd"
number = 8.72

[[record]]
molecule = "CC[C@H](C)[C@@H]1NC(=O)[C@H](COC)N(C)C(=O)C[C@@H](C(=O)N(C)CC)N(C)C(=O)[C@H](C2CCCC2)N(C)C(=O)C2(CC(C)(C)C2)NC(=O)[C@@H]2C[C@H](C)CN2C(=O)[C@H](CCc2ccc(C(F)(F)F)c(Cl)c2)NC(=O)CN(C)C(=O)[C@H](Cc2ccc(C)cc2)N2CC/C=C\\C[C@@H](C2=O)N(C)C(=O)CN(C)C1=O"
testedon = "GDP-bound KRAS wild-type protein (Homo sapiens, UniProt P01116)"
measuredproperty = "pKd"
number = 9.89


query: Item CCO[C@@H]1C[C@H]2C(=O)NC3(CC(C)(C)C3)C(=O)N(C)[C@@H](C3CCCC3)C(=O)N(C)[C@H](C(=O)N(C)CC)CC(=O)N(C)[C@@H]([C@H](C)OC)C(=O)N[C@@H]([C@@H](C)CC)C(=O)N3CCC[C@H]3C(=O)N(C)[C@H]3C/C=C\CCN(C3=O)[C@@H](Cc3ccc(C)cc3)C(=O)N(C)CC(=O)N[C@@H](CCc3ccc(C(F)(F)F)c(OC)c3)C(=O)N2C1 : provide pKd
result: 8.64
